Entries and their MTC50 values follow.
Test system: Vero
Test: Minimum toxic concentration against vaccinia virus (vero cell line)
Type: functional, Chlorocebus sabaeus
// note: answer is a bare numeric in µg/mL

Worked examples, 3 compounds total:
Nc1nccc2c1ncn2[C@@H]1C[C@H](CBr)[C@H](O)C1O (some centres undefined) = 320
C[C@H]1C[C@@H](n2cnc3c(N)nccc32)C(O)[C@H]1O (some centres undefined) = 100
NC[C@H]1C[C@@H](n2cnc3c(N)nccc32)C(O)[C@H]1O (some centres undefined) = 320

Which MTC50 value is on record for NC(=O)[C@H]1C[C@@H](n2cnc3c(N)nccc32)C(O)[C@H]1O (some centres undefined) ?
320
